B1: TRIM55 (parent)
chain: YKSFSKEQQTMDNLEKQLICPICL

# Variants of: B1
# assay_name: protein stability index of a GFP-peptide fusion (GPS, HEK-293T) (PSI 1-6); higher = more stable;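 also: lentivirally expressed fusions sorted by FACS into six bins by GFP to DsRed ratio, PSI derived from sequencing read proportions per bin multiplied by bin number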
# conditions: c terminus: a fixed tail appended
Quick rule: protein stability index of at least 2 means t, below that means f.

Answered cases to consult:
# variant_notation, assigned_category
data = [
    ("I19R", "t"),
    ("S5G", "t"),
    ("K16C", "f"),
]

In: hey, is protein stability index for this one >= 2? S5H
Out: f

In: Textbook exercise: given the entry Y1K , state whether its protein stability index is greater than or equal to 2.
Out: t

In: State whether the measured protein stability index reaches 2, counting equality as reaching it, for N13Q
Out: t

In: Does D12I have a reported protein stability index of at least 2?
Out: f

In: State whether the measured protein stability index reaches 2, counting equality as reaching it, for E7I
Out: t

In: Identify whether the reported protein stability index of the following variant is 2 or greater: F4Y
Out: t

In: Does C20F have a reported protein stability index of at least 2?
Out: t

In: For this variant, is measured protein stability index 2 or higher? M11P
Out: t

In: Please check the record T10G and state if its protein stability index is at or above 2.
Out: t

In: Tell me whether protein stability index is at least 2 here: C23M
Out: f

From: the supplement of paper PMC10567573
